- assay.overview: Cytotoxicity against human MRC5 cells assessed as cell viability at 3.125 to 100 uM measured after 24 hrs by MTT assay relative to control
- Format: toxicity, cell-based
- test.settings: dose 3.125-100 µM, read-out: Activity
attribute.measured: viability at 24 h, up to 100 µM

The examples below pair each entry with its known result.
smiles_structure=O=C1NC(=O)[C@@H](c2ccccc2)N1 attribute_measured="viability at 24 h, up to 100 µM" experimental_value="> 80%"
smiles_structure=Cc1ccc(S(=O)(=O)N2C(=O)CNC2=O)cc1 attribute_measured="viability at 24 h, up to 100 µM" experimental_value="> 80%"
smiles_structure=O=C1CNC(=O)N1 attribute_measured="viability at 24 h, up to 100 µM" experimental_value="> 80%"
smiles_structure=CC(C)C(=O)N1C(=O)N[C@H](c2ccccc2)C1=O attribute_measured="viability at 24 h, up to 100 µM" experimental_value="> 80%"
smiles_structure=CSCC[C@H]1NC(=O)NC1=O attribute_measured="viability at 24 h, up to 100 µM" experimental_value="> 80%"
smiles_structure=O=C1CNC(=O)N1C(=O)Cc1ccccc1 attribute_measured="viability at 24 h, up to 100 µM" experimental_value="> 80%"
smiles_structure=O=C1CNC(=O)N1C(=O)c1cc([N+](=O)[O-])cc([N+](=O)[O-])c1 attribute_measured="viability at 24 h, up to 100 µM" experimental_value="> 80%"
smiles_structure=C[C@H]1NC(=O)NC1=O attribute_measured="viability at 24 h, up to 100 µM" experimental_value="> 80%"

Record viability at 24 h, up to 100 µM for all entries; do not skip any.
1. CC(=O)N1C(=O)CNC1=O
2. CC(C)C(=O)N1C(=O)CNC1=O

1: > 80%; 2: > 80%
